- PROCEDURE_DETAILS: cn = amount concentration of the nth substance listed, in mol/dm3
- COND: 308.65 K; 101 kPa; Liquid; c1 = 0.01
MEASURE: mass density (kg/m3)

In [3]: df
Out[3]:
                                   molecule  meas_value
0  [Cl-].c1ccc([P+](c2ccccc2)(c2ccccc2)c2ccccc2)cc1 [tetraphenylphosphonium chloride] + CCO      778.02
1  [Cl-].c1ccc([P+](c2ccccc2)(c2ccccc2)c2ccccc2)cc1 [tetraphenylphosphonium chloride] + CC#N      768.43
2  [Cl-].c1ccc([P+](c2ccccc2)(c2ccccc2)c2ccccc2)cc1 [tetraphenylphosphonium chloride] + O      995.67
3  [Cl-].c1ccc([P+](c2ccccc2)(c2ccccc2)c2ccccc2)cc1 [tetraphenylphosphonium chloride] + CO      779.51

###

Below, each entry is listed with its recorded mass density.
- PROCEDURE_DETAILS: cn = amount concentration of the nth substance listed, in mol/dm3
- COND: 314.65 K; 101 kPa; Liquid; c2 = 0
// return numeric value only (unit: kg/m3, not printed)

Example entries and their recorded answers appear below.
In [3]: df
Out[3]:
                                   molecule  meas_value
0  O [water] + [Cl-].c1ccc([P+](c2ccccc2)(c2ccccc2)c2ccccc2)cc1      991.68
1  CC#N [acetonitrile] + [Cl-].c1ccc([P+](c2ccccc2)(c2ccccc2)c2ccccc2)cc1     759.726
2  CCO [ethanol] + [Cl-].c1ccc([P+](c2ccccc2)(c2ccccc2)c2ccccc2)cc1      770.84

For the molecule CO [methanol] + [Cl-].c1ccc([P+](c2ccccc2)(c2ccccc2)c2ccccc2)cc1 , what mass density is on record?
771.1

###

- PROCEDURE_DETAILS: cn = amount concentration of the nth substance listed, in mol/dm3
- COND: 314.65 K; 101 kPa; Liquid; c1 = 0.01
MEASURE: mass density (kg/m3)

In [3]: df
Out[3]:
                                   compound  meas_value
0  [Cl-].c1ccc([P+](c2ccccc2)(c2ccccc2)c2ccccc2)cc1 [tetraphenylphosphonium chloride] + CCO      772.21
1  [Cl-].c1ccc([P+](c2ccccc2)(c2ccccc2)c2ccccc2)cc1 [tetraphenylphosphonium chloride] + CC#N      762.76
2  [Cl-].c1ccc([P+](c2ccccc2)(c2ccccc2)c2ccccc2)cc1 [tetraphenylphosphonium chloride] + O      992.33
3  [Cl-].c1ccc([P+](c2ccccc2)(c2ccccc2)c2ccccc2)cc1 [tetraphenylphosphonium chloride] + CO       775.7

###

- PROCEDURE_DETAILS: specific heat capacity at constant pressure; cn = amount concentration of the nth substance listed, in mol/dm3
- COND: 308.65 K; 101 kPa; Liquid; heat flux microcalorimetry; c1 = 0.005
MEASURE: specific heat capacity (J/K/kg)

                                   compound                 measure  unit_text  meas_value
0  [Cl-].c1ccc([P+](c2ccccc2)(c2ccccc2)c2ccccc2)cc1 [tetraphenylphosphonium chloride] + CO  specific heat capacity     J/K/kg      2543.2
1  [Cl-].c1ccc([P+](c2ccccc2)(c2ccccc2)c2ccccc2)cc1 [tetraphenylphosphonium chloride] + CC#N  specific heat capacity     J/K/kg      2269.4

[a] [Cl-].c1ccc([P+](c2ccccc2)(c2ccccc2)c2ccccc2)cc1 [tetraphenylphosphonium chloride] + O
[b] [Cl-].c1ccc([P+](c2ccccc2)(c2ccccc2)c2ccccc2)cc1 [tetraphenylphosphonium chloride] + CCO
Which is greater in specific heat capacity, the first item a or the second item b ? Reply with the label of the item you choose.
a
(a: 4202.5 J/K/kg, b: 2520.9 J/K/kg)

Numbers sourced from the NIST ThermoML archive (doi:10.1016/j.fluid.2010.03.017).
